Target: UniProt P33261
Sequence (P33261 whole entry): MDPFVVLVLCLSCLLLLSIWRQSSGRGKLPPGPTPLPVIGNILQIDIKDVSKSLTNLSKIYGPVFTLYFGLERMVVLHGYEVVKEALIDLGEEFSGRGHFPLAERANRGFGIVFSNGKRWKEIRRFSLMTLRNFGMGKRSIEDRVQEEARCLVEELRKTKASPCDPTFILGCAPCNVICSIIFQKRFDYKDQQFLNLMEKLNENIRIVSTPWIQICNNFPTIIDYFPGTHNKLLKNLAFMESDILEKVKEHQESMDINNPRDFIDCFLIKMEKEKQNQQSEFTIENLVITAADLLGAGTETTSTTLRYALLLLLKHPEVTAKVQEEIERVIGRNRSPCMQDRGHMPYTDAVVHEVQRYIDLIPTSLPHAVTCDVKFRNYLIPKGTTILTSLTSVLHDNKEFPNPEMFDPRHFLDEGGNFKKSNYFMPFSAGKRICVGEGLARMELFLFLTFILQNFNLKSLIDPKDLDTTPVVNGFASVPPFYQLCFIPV
OBSERVABLE: IC50

Form field, IC50 with UniProt P33261, item `COC(=O)N[C@H](C(=O)N1C[C@@H](C)C[C@H]1c1nc(-c2ccc(-c3ccc(-c4ccc5[nH]c([C@@H]6C[C@H](C)CN6C(=O)[C@@H](NC(=O)OC)C(C)C)nc5c4)cc3)cc2)c[nH]1)C(C)C` : > 30 µM

----------
Experiment: Cytotoxicity against human Huh7ET cells by [3H]-thymidine incorporation assay
Format: cell-based
Conditions: Huh7ET cells (Huh-7)
OBSERVABLE: CC50

Observe how each entry below is paired with its result.
smiles_str=COC(=O)N[C@H](C(=O)N1C[C@H](OC)C[C@H]1c1nc2cc(-c3ccc(-c4ccc5[nH]c([C@@H]6C[C@@H](OC)CN6C(=O)[C@@H](NC(=O)OC)C(C)C)nc5c4)cc3)ccc2[nH]1)C(C)C result="6 µM"
smiles_str=COC(=O)N[C@H](C(=O)N1CCC[C@H]1c1nc2cc(-c3ccc(-c4ccc5[nH]c([C@@H]6CCCN6C(=O)[C@@H](NC(=O)OC)C(C)C)nc5c4)c(C)c3)ccc2[nH]1)C(C)C result="3 µM"
smiles_str=COC(=O)N[C@H](C(=O)N1CCC[C@H]1c1nc2ccc(C#Cc3ccc4nc([C@@H]5CCCN5C(=O)[C@@H](NC(=O)OC)C(C)C)[nH]c4c3)cc2[nH]1)C(C)C result="> 20 µM"

Reported CC50 of `COC(=O)N[C@H](C(=O)N1C[C@@H](C)C[C@H]1c1nc(-c2ccc(-c3ccc(-c4ccc5[nH]c([C@@H]6C[C@H](C)CN6C(=O)[C@@H](NC(=O)OC)C(C)C)nc5c4)cc3)cc2)c[nH]1)C(C)C` : > 20 µM

Reported CC50 of `COC(=O)N[C@H](C(=O)N1C[C@H](C)C[C@H]1c1nc2cc(-c3ccc(-c4ccc5[nH]c([C@@H]6C[C@@H](C)CN6C(=O)[C@@H](NC(=O)OC)C(C)C)nc5c4)cc3)ccc2[nH]1)C(C)C` : 14 µM

Reported CC50 of `COC(=O)N[C@H](C(=O)N1CCC[C@H]1c1nc2cc(-c3ccc(-c4ccc5nc([C@@H]6CCCN6C(=O)[C@@H](NC(=O)OC)C(C)C)[nH]c5c4)cc3OC)ccc2[nH]1)C(C)C` : 6 µM

Reported CC50 of `CC[C@H]1C[C@@H](c2nc3cc(-c4ccc(-c5ccc6[nH]c([C@@H]7C[C@H](CC)CN7C(=O)[C@@H](NC(=O)OC)C(C)C)nc6c5)cc4)ccc3[nH]2)N(C(=O)[C@@H](NC(=O)OC)C(C)C)C1` : > 20 µM

Reported CC50 of `COC(=O)N[C@H](C(=O)N1CCC[C@H]1c1nc2cc(CCc3ccc4[nH]c([C@@H]5CCCN5C(=O)[C@@H](NC(=O)OC)C(C)C)nc4c3)ccc2[nH]1)C(C)C` : > 20 µM

Reported CC50 of `COC(=O)N[C@H](C(=O)N1CCC[C@H]1c1nc2ccc(-c3ccc(-c4ccc5nc([C@@H]6CCCN6C(=O)[C@@H](NC(=O)OC)C(C)C)[nH]c5c4)cc3)cc2[nH]1)C(C)C` : 6 µM

Reported CC50 of `COC(=O)N[C@H](C(=O)N1C[C@@H](C)C[C@H]1c1nc2cc(-c3ccc(-c4ccc5[nH]c([C@@H]6C[C@H](C)CN6C(=O)[C@@H](NC(=O)OC)C(C)C)nc5c4)cc3)ccc2[nH]1)C(C)C` : > 20 µM

----------
Assay: Oral bioavailability in rat at 3 mg/kg
Type: ADME, organism-based
Details: in vivo
OBSERVABLE: bioavailability (%)
Please respond with the number in % and leave the unit unwritten.

Reported bioavailability of `COC(=O)N[C@H](C(=O)N1C[C@@H](C)C[C@H]1c1nc(-c2ccc(-c3ccc(-c4ccc5[nH]c([C@@H]6C[C@H](C)CN6C(=O)[C@@H](NC(=O)OC)C(C)C)nc5c4)cc3)cc2)c[nH]1)C(C)C` : 26

----------
Recorded measurements of log10 of EC50, one per entry
System: Hepatitis C virus
Test: Antiviral activity against Hepatitis C virus genotype 1b infected in human Huh-5.2 cells assessed as decrease in HCV replicon RNA replication after 4 days by luciferase assay
Format: functional, cell-based, Hepacivirus hominis
Conditions: Huh-5-2, 96 h
// do not treat as linear: log10 of EC50, unit nM

Observe how each entry below is paired with its result.
smiles_str=COC(=O)N[C@H](C(=O)N1C[C@@H](C)C[C@H]1c1nc2cc(-c3ccc(-c4ccc5[nH]c([C@@H]6C[C@H](C)CN6C(=O)[C@@H](NC(=O)OC)C(C)C)nc5c4)cc3)ccc2[nH]1)C(C)C observable="log10 of EC50" numeric_result=-1.43
smiles_str=COC(=O)N[C@H](C(=O)N1CCC[C@H]1c1nc2ccc(-c3ccc(-c4ccc5nc([C@@H]6CCCN6C(=O)[C@@H](NC(=O)OC)C(C)C)[nH]c5c4)s3)cc2[nH]1)C(C)C observable="log10 of EC50" numeric_result=-2.00
smiles_str=COC(=O)N[C@H](C(=O)N1CCC[C@H]1c1ncc(-c2ccc(-c3ccc(-c4ccc5nc([C@@H]6CCCN6C(=O)[C@@H](NC(=O)OC)C(C)C)[nH]c5c4)cc3)cc2)[nH]1)C(C)C observable="log10 of EC50" numeric_result=-1.89
smiles_str=COC(=O)N[C@H](C(=O)N1C[C@@H](F)C[C@H]1c1nc2cc(-c3ccc(-c4ccc5[nH]c([C@@H]6C[C@H](F)CN6C(=O)[C@@H](NC(=O)OC)C(C)C)nc5c4)cc3)ccc2[nH]1)C(C)C observable="log10 of EC50" numeric_result=-1.09

Form field, log10 of EC50 with Hepatitis C virus, item `COC(=O)N[C@H](C(=O)N1CCC[C@H]1c1nc2ccc(C#CC#Cc3ccc4nc([C@@H]5CCCN5C(=O)[C@@H](NC(=O)OC)C(C)C)[nH]c4c3)cc2[nH]1)C(C)C` : -1.62

Form field, log10 of EC50 with Hepatitis C virus, item `COC(=O)N[C@H](C(=O)N1C[C@H](O)C[C@H]1c1nc2cc(-c3ccc(-c4ccc5[nH]c([C@@H]6C[C@@H](O)CN6C(=O)[C@@H](NC(=O)OC)C(C)C)nc5c4)cc3)ccc2[nH]1)C(C)C` : -1.00

Form field, log10 of EC50 with Hepatitis C virus, item `COC(=O)N[C@H](C(=O)N1C[C@H](F)C[C@H]1c1nc2cc(-c3ccc(-c4ccc5[nH]c([C@@H]6C[C@@H](F)CN6C(=O)[C@@H](NC(=O)OC)C(C)C)nc5c4)cc3)ccc2[nH]1)C(C)C` : -1.74

----------
Assay: Cytotoxicity against human Huh7ET cells by [3H]-thymidine incorporation assay
Format: cell-based
Details: Huh7ET cells (Huh-7)
Recorded measurements of CC50, one per entry
Please respond with the number in µM and leave the unit unwritten.

Observe how each entry below is paired with its result.
smiles_str=COC(=O)N[C@H](C(=O)N1C[C@H](F)C[C@H]1c1nc2cc(-c3ccc(-c4ccc5[nH]c([C@@H]6C[C@@H](F)CN6C(=O)[C@@H](NC(=O)OC)C(C)C)nc5c4)cc3)ccc2[nH]1)C(C)C observable=CC50 numeric_result=14
smiles_str=COC(=O)N[C@H](C(=O)N1C[C@@H](C(F)(F)F)C[C@H]1c1nc2cc(-c3ccc(-c4ccc5[nH]c([C@@H]6C[C@H](C(F)(F)F)CN6C(=O)[C@@H](NC(=O)OC)C(C)C)nc5c4)cc3)ccc2[nH]1)C(C)C observable=CC50 numeric_result=13

Let's switch to this molecule now.
Reported CC50 of `COC(=O)N[C@H](C(=O)N1CC(F)(F)C[C@H]1c1nc2cc(-c3ccc(-c4ccc5[nH]c([C@@H]6CC(F)(F)CN6C(=O)[C@@H](NC(=O)OC)C(C)C)nc5c4)cc3)ccc2[nH]1)C(C)C` : 13

----------
Target: UniProt:P10635
Sequence (P10635 whole entry): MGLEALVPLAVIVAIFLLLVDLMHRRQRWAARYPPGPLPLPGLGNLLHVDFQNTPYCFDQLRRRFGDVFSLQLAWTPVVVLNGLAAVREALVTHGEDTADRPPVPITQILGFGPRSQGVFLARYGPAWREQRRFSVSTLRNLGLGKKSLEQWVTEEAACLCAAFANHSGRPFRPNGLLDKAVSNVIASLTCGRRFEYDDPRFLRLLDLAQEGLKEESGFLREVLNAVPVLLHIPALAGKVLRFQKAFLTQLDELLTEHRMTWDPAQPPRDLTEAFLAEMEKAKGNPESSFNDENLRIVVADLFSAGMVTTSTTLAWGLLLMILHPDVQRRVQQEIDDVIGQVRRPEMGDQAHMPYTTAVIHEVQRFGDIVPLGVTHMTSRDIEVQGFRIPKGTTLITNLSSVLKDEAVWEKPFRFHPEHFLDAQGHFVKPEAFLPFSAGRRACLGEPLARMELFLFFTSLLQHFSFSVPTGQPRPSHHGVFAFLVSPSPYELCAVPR
pIC50: −log10 of the molar value.
OBSERVABLE: pIC50

Form field, pIC50 with UniProt:P10635, item `COC(=O)N[C@H](C(=O)N1C[C@@H](C)C[C@H]1c1nc(-c2ccc(-c3ccc(-c4ccc5[nH]c([C@@H]6C[C@H](C)CN6C(=O)[C@@H](NC(=O)OC)C(C)C)nc5c4)cc3)cc2)c[nH]1)C(C)C` : < 4.52

----------
Assay: Protein binding in human plasma
Assay type: ADME, cell-free
Details: read-out: PPB (converted)
OBSERVABLE: fraction unbound
Provide a numeric answer; units are not to be included.

Reported fraction unbound of `COC(=O)N[C@H](C(=O)N1C[C@@H](C)C[C@H]1c1nc(-c2ccc(-c3ccc(-c4ccc5[nH]c([C@@H]6C[C@H](C)CN6C(=O)[C@@H](NC(=O)OC)C(C)C)nc5c4)cc3)cc2)c[nH]1)C(C)C` : 0.014
